# target.system: human GlyT1b (Homo sapiens)
# Construct: expressed in transfected cells
# Sequence (P48067 1-652 isoform P48067-3): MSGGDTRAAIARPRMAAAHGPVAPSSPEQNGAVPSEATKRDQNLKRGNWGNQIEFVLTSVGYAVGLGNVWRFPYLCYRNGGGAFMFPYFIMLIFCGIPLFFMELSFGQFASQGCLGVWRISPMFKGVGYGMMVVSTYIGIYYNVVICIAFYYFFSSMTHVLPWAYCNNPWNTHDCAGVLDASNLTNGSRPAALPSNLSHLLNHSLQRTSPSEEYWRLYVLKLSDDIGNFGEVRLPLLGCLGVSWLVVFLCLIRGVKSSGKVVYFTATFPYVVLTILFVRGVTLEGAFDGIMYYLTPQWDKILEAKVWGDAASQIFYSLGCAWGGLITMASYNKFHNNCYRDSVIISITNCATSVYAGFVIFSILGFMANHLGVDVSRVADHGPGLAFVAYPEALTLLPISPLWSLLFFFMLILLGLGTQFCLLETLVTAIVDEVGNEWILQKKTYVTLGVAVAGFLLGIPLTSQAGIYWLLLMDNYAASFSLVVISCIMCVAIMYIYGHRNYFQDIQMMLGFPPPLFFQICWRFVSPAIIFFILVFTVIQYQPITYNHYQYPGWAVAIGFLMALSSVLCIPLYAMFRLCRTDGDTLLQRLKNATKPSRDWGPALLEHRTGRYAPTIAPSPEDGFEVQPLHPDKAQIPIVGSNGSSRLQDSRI
# procedure.details: [3H] Glycine Uptake Assay (SPA) in recombinant hGlyT1b-CHO cells
# Type: cell-based
# recorded.conditions: Table 2, unit from table title
pIC50: −log10 of the molar value.
Decision: pIC50 compared against 8; not below it gives 1, below it gives 0.

Completed entries (count: 4):
>>> label("Cc1cccc(C)c1C(=O)N[C@H](c1ccccc1)C12CCC(CC1)N2CC1CCCO1 (stereo partly drawn)")
1
>>> label("Cc1c(F)cccc1C(=O)NC(c1ccccc1)C12CCC(CC1)N2C (single isomer, unassigned)")
0
>>> label("Cc1cccc(C(NC(=O)c2c(C)cccc2C)C23CCC(CC2)N3C)c1 (stereo not drawn)")
0
>>> label("Cc1cccc(C)c1C(=O)N[C@H](c1ccccc1)C12CCC(CC1)N2CCN1CCCC1")
0

Could you verify whether the entry CCN1C2CCC1(C(NC(=O)c1cccnc1SC)c1ccccc1)CC2 (single isomer, unassigned) [Example 73] shows pIC50 of no less than 8?
0

Where do the numbers come from? From patent US20120094995A1.
